The values you see were collected from patent US5414144A.

# measurement-setup: 20° C.; solubility of the sample compound in water; 30 min
Values of Solubility (In water) greater than or equal to 1% map to True; values below map to False.

> print(dat)
                                   compound  assigned.category
1        CCCCOCC(C)OCCCC (stereo not shown)               True
2  COCC(C)OC(C)=O (stereo not shown) [compound 4, Propylene glycol methyl ether acetate]               True
3  COCC(C)OC1CCCCC1O (stereo not shown) [Example 3, 2-hydroxycyclohexyloxymethoxypropane]               True
4            CCCCOCC(C)O (stereo not shown)               True
5      CCOCC(C)OC1CCCCC1 (stereo not shown)              False
6       COCC(C)OC1CCCCC1 (stereo not shown)              False
